# TEST_NAME: 28-day oral toxicity study in rats with 14-day recovery
# Type: in vivo
# SETUP_CONDITIONS: both sexes, Sprague Dawley, rat, in vivo; rats, oral gavage
# Procedure: A battery of genotoxicity studies was also performed. […] The L23 vehicle was used. Exposures were maximal at 120 mg/kg/day.

| MOLECULE | NOAEL at 28 days / mg/kg/day |
| --- | --- |
| COc1ccc(C2c3[nH]c4ccc(Cl)cc4c3CCN2C(=O)Oc2ccc(Cl)cc2)cc1 (racemic) [Compound #10] | 12 |

###

# TEST_NAME: in vivo
# SETUP_CONDITIONS: both, beagle, dog, po

| MOLECULE | NOAEL at 28 days / mg/kg/day |
| --- | --- |
| COc1ccc(C2c3[nH]c4ccc(Cl)cc4c3CCN2C(=O)Oc2ccc(Cl)cc2)cc1 (racemic) | 30 |
